Data provenance: PubChem BioAssay AID1361

Assay: blockers of mitochondrial fusion, WT vs mutant – cell-based, chemical genetic, wild-type and mutant, confirmation (AID 1361)
Settings: Cell-based mitochondrial fusion phenotype, imaging, WT cells
Active and inactive are the calls of the source. The rule behind the calls is not given here.
# output must be one of t for active, f for inactive

Consider the following illustrative entries.
Cc1nn(-c2ccccc2)c(C)c1C(=O)OCC(=O)N1CCN(S(=O)(=O)c2ccccc2)CC1 = f
C/C(N)=C(/C#N)C(=O)CSc1nnnn1-c1ccccc1 = f
S=c1[nH]nc(-c2ccc3ccccc3n2)n1-c1cc(Cl)cc(Cl)c1 = t

We now examine a further compound.
Enquiry: # fetch the recorded call for Cc1ccc(CNCC(O)(c2ccccc2)c2ccc(F)cc2)cc1 (centres undefined) here
Return: f

###

Assay: blockers of mitochondrial fusion, WT vs mutant – cell-based, chemical genetic, wild-type and mutant, confirmation (AID 1361)
Conditions: Cell-based mitochondrial fusion phenotype, imaging, WT cells
Active and inactive are the calls of the source. How the calls were made is not given here.
# output must be one of active, inactive

Consider the following illustrative entries.
CC(=O)N1CCC(O)(c2cccc(C(F)(F)F)c2)CC1 = inactive
Cc1ccc(NC(=S)Nc2ccc(C(C)C)cc2)cc1S(=O)(=O)N1CCCCCC1 = active

Enquiry: # fetch the recorded call for Cc1cc(Cl)ccc1NC(=S)NCCC(c1ccccc1)c1ccccc1 here
Return: active

Enquiry: # fetch the recorded call for CC(C)N(Cc1nc(-c2ccc(Cl)cc2)no1)C(=O)CCC1CCCC1 here
Return: active

Enquiry: # fetch the recorded call for CCCCSc1cnn(-c2ccccc2)c(=O)c1SCCCC here
Return: active

Enquiry: # fetch the recorded call for CCCOC(=O)c1ccc(Oc2cn[nH]c2-c2ccc(OC)cc2O)cc1 here
Return: active

Enquiry: # fetch the recorded call for COc1ccc(S(=O)(=O)N2CCC[C@H]2C(=O)NC2=NCCS2)cc1 here
Return: inactive

Enquiry: # fetch the recorded call for COc1ccccc1-c1nnc(SCC(=O)NCc2c(C)c(Cl)cc(C(C)C)c2O)o1 here
Return: active

Enquiry: # fetch the recorded call for CC(C)Cc1ccc(C(C)C(=O)OCC(=O)c2c[nH]c3ccccc23)cc1 (centres undefined) here
Return: active

Enquiry: # fetch the recorded call for O=C(Nc1ccc(Cl)c(Cl)c1)c1ccc(Cn2cc(Cl)cn2)cc1 here
Return: active

Enquiry: # fetch the recorded call for c1ccc(-c2cn3c(n2)CCc2ccc4cccnc4c2-3)cc1 here
Return: inactive

Enquiry: # fetch the recorded call for CCCCNC(=S)N(C)/N=C/c1ccc2c(c1)OCO2 here
Return: inactive

Enquiry: # fetch the recorded call for CC(C)C12CN3CCN(CC(C3)C1O)C2 (centres undefined) here
Return: inactive

Enquiry: # fetch the recorded call for CCCCOC(=O)c1ccc(NC(=O)c2ccccc2OC)cc1 here
Return: inactive

###

Test: blockers of mitochondrial fusion, WT vs mutant – cell-based, chemical genetic, wild-type and mutant, confirmation (AID 1361)
Settings: Cell-based mitochondrial fusion phenotype, imaging, WT cells
The source made the active and inactive calls. The rule behind the calls is not given here.
# output must be one of y for active, n for inactive

Consider the following illustrative entries.
CCn1nccc1C(=O)Nc1ccc(S(=O)(=O)NC23CC4CC(CC(C4)C2)C3)cc1 = n
c1ccc2c(c1)nc(CN1CCOCC1)n1c3ccccc3nc21 = n
O=c1oc(Nc2cccc(F)c2)nc2ccccc12 = n

Enquiry: # fetch the recorded call for CNc1oc(C)nc1S(=O)(=O)c1ccc(C)cc1 here
Return: n

Enquiry: # fetch the recorded call for COc1ccccc1N=Nc1nc(-c2ccccc2)c(-c2ccccc2)[nH]1 here
Return: y

Enquiry: # fetch the recorded call for COC(=O)CCC(=O)COc1ccc(OC)cc1C#N here
Return: n

Enquiry: # fetch the recorded call for COCCN(C(=S)Nc1cccc(C)c1)C(C)c1cccs1 (stereo not given) here
Return: y
